# System: EKVX NSCLC
# Test protocol: NCI tumour cell line growth inhibition, 48 h
Value type: TGI

Observe how each entry below is paired with its result.
For record COC1CCN(N(C)C)O1 (configuration not stated) the listed TGI is > 100 µM

For record `NS(=O)(=O)c1ccc(N=Cc2c(O)[nH]c3ccc4ncsc4c23)cc1` the listed TGI is > 25 µM

For record `O=C(Nc1ccc(-n2cc(-c3ccncc3)c(-c3ccc(O)c(Cl)c3)n2)cc1)c1cc(C(F)(F)F)cc(C(F)(F)F)c1` the listed TGI is > 25 µM

For record O=C1c2ccccc2C(=Nc2ccc3ccccc3c2)C1(C1=C(c2ccccc2)C(=Nc2ccc3ccccc3c2)c2ccccc21)c1ccccc1 (configuration not stated) the listed TGI is > 100 µM

For record CC(C)=CCCC(C)[C@H]1CC(O)C2(C)C3=CCC4C(C)(C)[C@@H](O)CC[C@]4(C)C3=CC[C@]12C (some centres not stated) the listed TGI is > 100 µM

Continuing:
For record `COc1ccc2c3c1O[C@H]1[C@@H](O)CC[C@@]4(O)[C@@H](C2)N(C)CC[C@]314` the listed TGI is > 100 µM

For record `COc1cccc(/C=C/c2ccc(S(N)(=O)=O)cc2)c1` the listed TGI is > 100 µM

Data provenance is PubChem BioAssay (NCI).
